Target or system: 5-hydroxytryptamine receptor 1A (Homo sapiens); note: assay procedure not described here
Sequence (P08908 whole entry): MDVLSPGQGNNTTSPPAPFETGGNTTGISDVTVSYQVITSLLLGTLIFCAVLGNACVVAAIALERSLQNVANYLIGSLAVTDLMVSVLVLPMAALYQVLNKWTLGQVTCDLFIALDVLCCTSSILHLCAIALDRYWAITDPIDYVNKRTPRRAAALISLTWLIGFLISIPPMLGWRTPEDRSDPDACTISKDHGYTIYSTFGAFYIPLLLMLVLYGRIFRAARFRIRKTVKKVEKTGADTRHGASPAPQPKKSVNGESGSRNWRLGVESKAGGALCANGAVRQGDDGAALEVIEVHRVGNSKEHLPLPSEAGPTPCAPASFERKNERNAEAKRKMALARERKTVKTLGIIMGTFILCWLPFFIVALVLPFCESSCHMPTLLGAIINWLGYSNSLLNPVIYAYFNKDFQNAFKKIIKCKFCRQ
Format: functional, cell-based
Each record here notes measured AC50.

Worked cases, answers included:
- Compound: "O=C1CN=C(c2ccccc2)c2cc([N+](=O)[O-])ccc2N1 [NITRAZEPAM]"
  AC50: "> 10 µM"
- Compound: "CCCCC1C(=O)N(c2ccccc2)N(c2ccccc2)C1=O [PHENYLBUTAZONE]"
  AC50: "> 10 µM"

(Q) Dear colleague, I am looking for the recorded AC50 of the following compound: CC(C(=O)O)c1ccc(CC2CCCC2=O)cc1 (stereo not given) [LOXOPROFEN]
(A) > 30 µM

(Q) Could you share which AC50 value was measured for CC(CCc1ccc(O)cc1)NCCc1ccc(O)c(O)c1 (stereo not given) [DOBUTAMINE] ?
(A) > 10 µM
